# Test system: Streptococcus suis HE06
# Assay method text: percent growth relative to DMSO control; higher = less growth inhibition
# Condition details: 10 µM; incubation time 18 h
Decision: percent growth compared against 90%; not below it gives class 1, below it gives class 0.

Data request: Hi team, for O=C(Nc1c(O)cccc1-c1nc2c(C(=O)O)cccc2o1)c1cc(-c2ccccc2)on1 , is the recorded percent growth at or above 90%?
Data returned: class 0

Data request: Hi team, for NCCC(O)C(=O)N[C@@H]1C[C@H](N)[C@@H](OC2O[C@H](CN)[C@@H](O)[C@H](O)[C@H]2O)[C@H](O)C1OC1O[C@H](CO)[C@@H](O)[C@H](N)[C@H]1O (some centres undefined) , is the recorded percent growth at or above 90%?
Data returned: class 1

Data request: Hi team, for CN1CCCC1CCO[C@](C)(c1ccccc1)c1ccc(Cl)cc1 (some centres undefined) , is the recorded percent growth at or above 90%?
Data returned: class 0

Data request: Hi team, for COc1ccc(-c2onc(C(F)(F)F)c2-c2ccc(Cl)cc2)c(O)c1 , is the recorded percent growth at or above 90%?
Data returned: class 0

Data request: Hi team, for CCCCOC(=O)Nc1cc2nc(C3CCCCC3)[nH]c2cc1N1CCCC1 , is the recorded percent growth at or above 90%?
Data returned: class 0

Data request: Hi team, for CCCCc1ccc(C(=O)Nc2nccc3ccccc23)nc1 , is the recorded percent growth at or above 90%?
Data returned: class 0

Data request: Hi team, for c1ccc(Oc2ccc(-c3cc(N4CCNCC4)[nH]n3)cc2)cc1 , is the recorded percent growth at or above 90%?
Data returned: class 1

Data request: Hi team, for c1ccc(C[C@@H]2CN(c3nccc(Oc4ccc(-n5ccnc5)cc4)n3)CCN2)cc1 , is the recorded percent growth at or above 90%?
Data returned: class 1

Data request: Hi team, for NCCCC(N)(C(=O)O)C(F)F (centres undefined) , is the recorded percent growth at or above 90%?
Data returned: class 0

Data request: Hi team, for CC(C)(C)c1ccc(N[C@@H]2CCCC[C@H]2NC(=O)c2ccco2)cc1 , is the recorded percent growth at or above 90%?
Data returned: class 1

Data request: Hi team, for COc1ccc(-c2cnc3ccc(NCc4ccc(S(N)(=O)=O)cc4)nn23)cn1 , is the recorded percent growth at or above 90%?
Data returned: class 0

Data request: Hi team, for CCCn1c(CNc2ccccc2O)nc2ccccc21 , is the recorded percent growth at or above 90%?
Data returned: class 0

Data request: Hi team, for NC(=O)c1cc(-c2ccsc2)ccc1OCCOc1ccccc1 , is the recorded percent growth at or above 90%?
Data returned: class 1

Data request: Hi team, for COC(=O)c1ccc(F)cc1NS(=O)(=O)c1cccc(-c2cnn(Cc3ccccc3)c2)c1 , is the recorded percent growth at or above 90%?
Data returned: class 1

Data request: Hi team, for O=C(Nc1cccc(-c2ccc(NCCCN3CCCC3)nc2)c1)c1ccccc1 , is the recorded percent growth at or above 90%?
Data returned: class 1

Data request: Hi team, for Cc1ccc(NC(=O)c2nc[nH]c2C(=O)Nc2nc3ccccc3[nH]2)c(C)c1 , is the recorded percent growth at or above 90%?
Data returned: class 0

Data request: Hi team, for Cc1[nH]c2ccccc2c1C(c1cccs1)N1CCN(C)CC1 (centres undefined) , is the recorded percent growth at or above 90%?
Data returned: class 0

Data request: Hi team, for CC(C)(C)n1nc(-c2ccccc2)c2c(N)ncnc21 , is the recorded percent growth at or above 90%?
Data returned: class 0

Data request: Hi team, for CCOc1ccc2cc(-c3nn(C(C)(C)C)c(N)c3C(N)=O)cnc2c1 , is the recorded percent growth at or above 90%?
Data returned: class 0

Data request: Hi team, for O=C(NCCN1CCCC1)c1cc(NCCN2CCOCC2)nc2ccc(Cl)cc12 , is the recorded percent growth at or above 90%?
Data returned: class 1

Data request: Hi team, for COc1ccccc1OCCCCn1c(C2CC2)nc2ccccc21 , is the recorded percent growth at or above 90%?
Data returned: class 1

Data request: Hi team, for CCC(Sc1nc2ccccc2o1)C(=O)Nc1nccs1 (centres undefined) , is the recorded percent growth at or above 90%?
Data returned: class 0

Data request: Hi team, for O=C(Nc1ccc(F)c(-c2nc3cc(-c4ccccc4)cnc3[nH]2)c1)N1CCCC1 , is the recorded percent growth at or above 90%?
Data returned: class 1

Data request: Hi team, for NCC(c1cccs1)S(=O)(=O)c1ccccc1 (centres undefined) , is the recorded percent growth at or above 90%?
Data returned: class 1

Data request: Hi team, for c1cc(C2=NCCN2)cc(-c2cc(-c3ccc(C4=NCCN4)cc3)no2)c1 , is the recorded percent growth at or above 90%?
Data returned: class 1

Data request: Hi team, for COc1ccccc1C(C)NCC(=O)Nc1cc(C(F)(F)F)ccc1Cl (centres undefined) , is the recorded percent growth at or above 90%?
Data returned: class 0

Data request: Hi team, for CCC(=O)Nc1ccccc1C(=O)Nc1ccccn1 , is the recorded percent growth at or above 90%?
Data returned: class 1

Data request: Hi team, for Cc1ccc2[nH]c3c(NCCN(C)C)ncnc3c2c1 , is the recorded percent growth at or above 90%?
Data returned: class 1

Data request: Hi team, for Nc1cccnc1Nc1ccc(Cl)cc1 , is the recorded percent growth at or above 90%?
Data returned: class 1

Data request: Hi team, for CN1CCN(CCCOc2ncc(Nc3ncc(-c4ccc(C(F)(F)F)c(F)c4)nc3C(N)=O)cn2)CC1 , is the recorded percent growth at or above 90%?
Data returned: class 1

Data request: Hi team, for Cc1ccc(Oc2ccc(NC(=O)CNc3ccccc3N3CCCC3=O)cc2)cc1 , is the recorded percent growth at or above 90%?
Data returned: class 0

Data request: Hi team, for COc1ccc2nccc(NC(=O)C3CCN(CCc4ccc(Cl)cc4)CC3)c2n1 , is the recorded percent growth at or above 90%?
Data returned: class 0

Data request: Hi team, for CC(Oc1ccccc1)C(=O)Nc1nc(-c2ccccn2)cs1 (centres undefined) , is the recorded percent growth at or above 90%?
Data returned: class 0

Data request: Hi team, for CCC(C)NC(=O)c1ccc(NC(=O)C2(c3ccccc3)CCCC2)cc1 (centres undefined) , is the recorded percent growth at or above 90%?
Data returned: class 1

Data request: Hi team, for CC(c1cc(Cl)cc(Cl)c1)N(C)c1ncc2c(N)nc(N)nc2n1 (centres undefined) , is the recorded percent growth at or above 90%?
Data returned: class 0

Data request: Hi team, for FC(F)(F)c1cc(NCCc2ccccc2)nc(-c2ccccn2)n1 , is the recorded percent growth at or above 90%?
Data returned: class 0
